Measured values drawn from paper PMC5540273 for this set.

# Tested on: PIM2
# condition-context: concentration: 1 μM, replicates: in singlicate; n = 1;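 also: KINOMEscan kinase panel screen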
value-kind: %Inh (%)
Numbers only, in %.

# compound, %Inh, %
rows = [
    ("O=C(Nc1cccc(-c2nn3ccccc3c2-c2ccnc(Nc3cccc(C(F)(F)F)c3)n2)c1)c1c(F)cccc1F [GSK292658]", 0),
]

// batch mode: one %Inh value per listed entry
1. COc1cc(Nc2nccc(-c3c(-c4cccc(NC(=O)c5c(F)cccc5F)c4)nn4ncccc34)n2)cc(OC)c1OC [GSK327238]
2. CN(C)Cc1ccc(-c2ccc3c(Nc4ccc(Oc5ccccn5)cc4)ccnc3c2)o1 [GW567148]
3. NCCCC(NC(=O)c1cc(Br)c(-c2ccnc3[nH]ccc23)s1)c1ccccc1.O=C(O)C(F)(F)F.O=C(O)C(F)(F)F (centres unmarked) [GSK1287544]

[0, 0, 93]

---

# Test system: DRAK2
# Construct: gene STK17B
# condition-context: concentration: 1 μM, replicates: in singlicate; n = 1
Label label 1 when %Inh is strictly below 20%; at or above that, label label 0.

# molecule, assayed-system, label-class
rows = [
    ("COc1cccc(C(=O)Nc2cccc(Oc3ccc4nc(NC(=O)C5CC5)cn4n3)c2)c1", "DRAK2", "label 0"),
    ("COc1cccc(-c2ccc3c(NC(=O)C4CC4)n[nH]c3n2)c1", "DRAK2", "label 1"),
    ("COc1cccc(C2=C(Nc3ccc(Cl)c(C(=O)O)c3)C(=O)NC2=O)c1", "DRAK2", "label 0"),
    ("COc1cc(Nc2nccc(N3CCC(NC(=O)Nc4cccc(C(C)=O)c4)C3)n2)cc(OC)c1OC (stereo not drawn)", "DRAK2", "label 1"),
    ("CN(c1ccc(NC(=O)Nc2cc(C(F)(F)F)ccc2F)cc1)c1ccnc(Nc2ccc(S(N)(=O)=O)cc2)n1", "DRAK2", "label 1"),
]

Determine whether this molecule shows %Inh lower than 20% (ties excluded): CC(C)c1nc(-c2cccc(NS(=O)(=O)c3c(F)cccc3F)c2F)c(-c2ccnc(Nc3ccc(N4CCOCC4)nc3)n2)s1
label 1

Determine whether this molecule shows %Inh lower than 20% (ties excluded): O=C(Nc1cccc(Oc2ccc3nc(NC(=O)C4CC4)cn3n2)c1)c1ccccc1C(F)(F)F
label 0

Determine whether this molecule shows %Inh lower than 20% (ties excluded): O=c1[nH]cc(-c2ccc(N3CCOCC3)cc2)c2sc(-c3cn[nH]c3)cc12
label 1

---

Could you please report measured %Inh for the items listed next?
# Tested on: PIP5K1A
# condition-context: concentration: 1 μM, replicates: in singlicate; n = 1
Numbers only, in %.

The cases that follow already have their %Inh on record.
# compound, %Inh (%)
records = [
    ("c1ccc(Oc2ccc(Nc3ccnc4cc(-c5ccc(CNCCN6CCOCC6)o5)ccc34)cc2)nc1", 62),
    ("Cc1cccc(NC(=O)Nc2ccc(Oc3ncnc4ccn(C)c34)cc2)c1", 0),
    ("CSc1cccc2c(-c3ccncn3)c(-c3ccc(F)cc3)nn12", 0),
    ("O=C(Nc1n[nH]c2cc(-c3ccoc3)ccc12)C1CC1", 28),
    ("Cc1ccc(C)c(NC(=O)NC2CCN(c3ccnc(Nc4ccc(F)cc4)n3)C2)c1 (centres unmarked)", 0),
]

// batch mode: one %Inh value per listed entry
1. CC(C)(C)c1ccc2nccc(Nc3cccc(O)c3)c2c1
2. Cc1ccc(F)c(C(=O)Nc2cccc(-c3nn4ccccc4c3-c3ccnc(Nc4cccc(F)c4)n3)c2)c1F
3. COc1cc(Nc2nccc(-c3c(-c4cccc(NC(=O)c5c(F)cccc5F)c4)nn4ccccc34)n2)cc(OC)c1OC

1. 29
2. 0
3. 0
